- CONDITIONS: Ebola virus entry assay, green fluorescence channel
Potency and affinity values are given separately. Activity calls are given as the source filed them. The call rests on the fitted dose curve.
Possible outcomes: class 1 for active, class 0 for inactive

COMPOUND	CLASS
N=c1nc(N2CCCCC2)cc(N)n1O	class 0
Cc1cn([C@H]2C[C@H](N=[N+]=[N-])[C@@H](CO)O2)c(=O)[nH]c1=O	class 0
Fc1ccc([C@@H]2CCNC[C@H]2COc2ccc3c(c2)OCO3)cc1	class 0
O=C(O)C1(C(=O)O)CCC1.[NH2-].[NH2-].[Pt+2]	class 0
C[C@H]1O[C@H](O[C@H]2[C@H](O)[C@@H](O)[C@@H](O[C@H]3[C@H](O)[C@@H](O)[C@H](O)O[C@@H]3CO)O[C@@H]2CO)[C@H](O)[C@@H](O)[C@@H]1N[C@H]1C=C(CO)[C@@H](O)[C@H](O)[C@H]1O	class 0
C[C@]12CC[C@H]3[C@@H](CCC4=CC(=O)CC[C@@H]43)[C@@H]1CC[C@@H]2OC(=O)CCc1ccccc1	class 0
Cc1[nH]c(=O)c(C#N)cc1-c1ccncc1	class 0
COc1ccccc1OCC(O)CN1CCN(CC(=O)Nc2c(C)cccc2C)CC1 (stereo not given)	class 0
CC(C)NCC(O)COc1ccc(CCOCC2CC2)cc1 (stereo not given)	class 0
CCN(CC)C(=S)SSC(=S)N(CC)CC	class 0
NC(=O)N1c2ccccc2CC(=O)c2ccccc21	class 0
O=C1Nc2ccc(Cl)cc2[C@@](C#CC2CC2)(C(F)(F)F)O1	class 0
CN(C)CCCN1c2ccccc2Sc2ccc(Cl)cc21	class 0
N=C(N)c1ccc(OCCCCCOc2ccc(C(=N)N)cc2)cc1	class 0
Cc1ccccc1N1C(=O)c2cc(S(N)(=O)=O)c(Cl)cc2NC1C (stereo not given)	class 0
CC(C)OC(=O)C(C)(C)Oc1ccc(C(=O)c2ccc(Cl)cc2)cc1	class 0
CCN(CC)CCNC(=O)c1cc(Cl)c(N)cc1OC	class 0
CC[C@]1(O)C[C@H]2CN(CCc3c([nH]c4ccccc34)[C@@](C(=O)OC)(c3cc4c(cc3OC)N(C=O)[C@H]3[C@@](O)(C(=O)OC)[C@H](OC(C)=O)[C@]5(CC)C=CCN6CC[C@]43[C@@H]65)C2)C1	class 0
O=C(NCCN1CCOCC1)c1ccc(Cl)cc1	class 0
CC(C)(C(=O)O)c1ccc(C(O)CCCN2CCC(C(O)(c3ccccc3)c3ccccc3)CC2)cc1 (stereo not given)	class 0
O=C1CCC(N2C(=O)c3ccccc3C2=O)C(=O)N1 (stereo not given)	class 0
O=c1[nH]c2ccccc2n1C1CCN(CCCC(c2ccc(F)cc2)c2ccc(F)cc2)CC1	class 0
CN1C(=O)CC(C)(c2ccccc2)C1=O (stereo not given)	class 0
COCCCOc1cc(C[C@@H](C[C@H](N)[C@@H](O)C[C@H](C(=O)NCC(C)(C)C(N)=O)C(C)C)C(C)C)ccc1OC	class 0
C=C[C@H]1CN2CC[C@H]1C[C@@H]2[C@@H](O)c1ccnc2ccc(OC)cc12	class 0
CCCN(CCC)CCc1cccc2c1CC(=O)N2	class 0
NC12CC3CC(CC(C3)C1)C2	class 0
Cc1nc(-c2ccc(OCC(C)C)c(C#N)c2)sc1C(=O)O	class 0
CC[C@@]1(O)C(=O)OCc2c1cc1n(c2=O)Cc2cc3c(CN(C)C)c(O)ccc3nc2-1	class 1
O[C@@H]1CO[C@H]2[C@@H]1OC[C@@H]2O	class 0
CCCCc1nc(Cl)c(CO)n1Cc1ccc(-c2ccccc2-c2nn[nH]n2)cc1	class 0
CN1CCN(C2=Nc3ccccc3Oc3ccc(Cl)cc32)CC1	class 0
CCC(C)(C)C(=O)O[C@H]1C[C@@H](C)C=C2C=C[C@H](C)[C@H](CC[C@@H]3C[C@@H](O)CC(=O)O3)[C@H]21	class 0
O[C@@H](c1cc(C(F)(F)F)nc2c(C(F)(F)F)cccc12)[C@H]1CCCCN1	class 0
COC(=O)[C@@H]1CC2=CC(=O)CC[C@]2(C)[C@@]23O[C@@H]2C[C@@]2(C)[C@@H](CC[C@@]24CCC(=O)O4)[C@H]13	class 0
Cn1cnc([N+](=O)[O-])c1Sc1ncnc2nc[nH]c12	class 0
Nc1cc(-c2ccncc2)c[nH]c1=O	class 0
CC1(C)O[C@@H]2[C@@H](CO[C@@]3(COS(N)(=O)=O)OC(C)(C)O[C@@H]23)O1	class 0
CC(=O)[C@]1(O)Cc2c(O)c3c(c(O)c2[C@@H](O[C@H]2C[C@H](N)[C@H](O)[C@H](C)O2)C1)C(=O)c1ccccc1C3=O	class 0
CCOC(=O)c1ncn2c1CN(C)C(=O)c1cc(F)ccc1-2	class 0
